Below, each entry is listed with its recorded neutralization titer.
target: hemagglutinin (HA) of influenza virus H5N1 A/Vietnam/1194/04 (influenza A virus); test: cell-based or functional assay
Readout kind: neutralization titer

binder="MD1214 (bispecific antibody) EVQLVESGGGLVQPGGSLRLSCAVSISIFDIYAMDWYRQAPGKQRDLVATSFRDGSTNYADSVKGRFTISRDNAKNTLYLQMNSLKPEDTAVYLCHVSLYRDPLGVAGGMGVYWGKGALVTVSSAAAGGGGSGGGGSGGGGSEVQLVESGGGLVQAGGSLKLSCAASGRTYAMGWFRQAPGKEREFVAHINALGTRTYYSDSVKGRFTISRDNAKNTEYLEMNNLKPEDTAVYYCTAQGQWRAAPVAVAAEYEFWGQGTQVTVSS" result="0.9 nM"
binder="MD1215 (VHH) EVQLVESGGGLVQAGGSLKLSCAASGRTYAMGWFRQAPGKEREFVAHINALGTRTYYSDSVKGRFTISRDNAKNTEYLEMNNLKPEDTAVYYCTAQGQWRAAPVAVAAEYEFWGQGTQVTVSSAAAGGGGSGGGGSGGGGSGGGGSGGGGGGSGGGGSGGGGSGGGGSGGGGSGGGGSGGGGSEVQLVESGGGLVQAGGSLKLSCAASGRTYAMGWFRQAPGKEREFVAHINALGTRTYYSDSVKGRFTISRDNAKNTEYLEMNNLKPEDTAVYYCTAQGQWRAAPVAVAAEYEFWGQGTQVTVSS" result="918 nM"
